test-summary: modulators of yeast start codon fidelity, primary screen, whole organism, S. cerevisiae, single point, plate reader (AID 602363)
test-conditions: S. cerevisiae UUG-firefly luciferase reporter, luminescence/redox ratio; at 18.7 µM; stronger effect = higher value
Screen size: about 350,000 compounds; about 450 (0.13%) were called active. Shown is part of a subset that was picked to be rich in actives.
measure: activity score (%)
Write the number in % without appending the unit.

Sample O=C(C[C@@H]1C=C[C@H](NC(=O)CCN2CCCCC2)[C@H](CO)O1)NCc1ccc(Cl)c(Cl)c1 — what was its activity score?
-10.1

What does the data say about its activity score? Entry: CCc1ccc(N(C(=O)c2csnn2)C(C(=O)NC2CCCCC2)c2ccncc2)cc1 (stereo unspecified)
-16.9

# get_value(readout='activity score', item= C[C@@H]1CCCCO[C@@H](CN(C)Cc2ccc(C(=O)O)cc2)[C@H](C)CN([C@@H](C)CO)C(=O)c2cc(NC(=O)C3CCCCC3)ccc2O1 )
3.06

Can you look up the measured activity score of C[C@@H]1CCCCO[C@@H](CN(C)S(C)(=O)=O)[C@H](C)CN([C@@H](C)CO)C(=O)c2cc(NC(=O)Nc3ccc4c(c3)OCO4)ccc2O1 for me?
12.2

Can you share its activity score? I mean this molecule: C[C@H](CO)N1C[C@H](C)[C@@H](CN(C)S(C)(=O)=O)Oc2cc(C#CC3CC3)ccc2S1(=O)=O
13.1

Entry C[C@@H]1CN([C@H](C)CO)C(=O)c2cccc(NC(=O)Nc3ccccc3)c2O[C@H]1CN(C)S(C)(=O)=O has what activity score?
1.91

Which activity score is listed for CCCNC(=O)N(C)C[C@H]1Oc2ncc(C#CC(C)C)cc2C(=O)N([C@@H](C)CO)C[C@@H]1C ?
11.9

Looking for the measured activity score of COc1cccc(S(=O)(=O)N[C@@H]2CC[C@@H](CCNC(=O)Cc3ccncc3)O[C@H]2CO)c1 , can you help?
0.154

Looking for the measured activity score of CN1CCN(C(=O)/C(=C\c2cccs2)NC(=O)c2cccs2)CC1 , can you help?
0.022

I would be grateful if you could share the reported activity score for CC(=O)N(C)C[C@H]1Oc2cc(C#CC3CC3)ccc2S(=O)(=O)N([C@H](C)CO)C[C@@H]1C .
22

Given the entry COc1ccc(S(=O)(=O)N(C)C[C@@H]2OCCCC[C@@H](C)Oc3ccc(NC(=O)c4ccccc4)cc3C(=O)N([C@@H](C)CO)C[C@H]2C)cc1 , report its measured activity score.
-7.34

Which activity score value is on record for CO[C@H]1CN(C)C(=O)c2cc(NC(=O)C3CCCCC3)ccc2OC[C@H](C)N(C(=O)c2ccccc2)C[C@H]1C ?
-6.56

Given the molecule Cc1noc(C)c1S(=O)(=O)Nc1ccc2c(c1)C(=O)N([C@@H](C)CO)C[C@@H](C)[C@@H](CN(C)S(=O)(=O)c1ccccc1)O2 , what is its reported activity score?
-1.76

For CCCN1C[C@H](C)[C@H](OC)CN(C)C(=O)c2cc(NC(=O)C3CCOCC3)ccc2OC[C@@H]1C , what is its reported activity score?
7.64

Which value of activity score has been reported for C[C@@H]1CN([C@@H](C)CO)S(=O)(=O)c2ccc(C#Cc3ccccc3)cc2O[C@@H]1CN(C)C(=O)C1CC1 in the records?
-28.6

Report activity score for C[C@@H]1CCCCO[C@H](CN(C)Cc2ccccc2)[C@@H](C)CN([C@@H](C)CO)C(=O)c2cc(NC(=O)Nc3ccc(F)cc3)ccc2O1 please.
33.7
